Data provenance is BigSolDB 2.1.

details: in ethanol, 318.15 K
outcome-measure: solubility (mole fraction)
Numbers only.

Ask: Quick check: solubility (mole fraction) of C[C@@H]1O[C@@H](OC[C@H]2O[C@@H](Oc3c(-c4ccc(OCCO)c(OCCO)c4)oc4cc(OCCO)cc(O)c4c3=O)[C@H](O)[C@@H](O)[C@@H]2O)[C@H](O)[C@H](O)[C@H]1O ?
Reply: 0.000547

====

details: in acetonitrile, 308.15 K
outcome-measure: solubility (mole fraction)
Give bare numbers.

Ask: Quick check: solubility (mole fraction) of C[C@@H]1O[C@@H](OC[C@H]2O[C@@H](Oc3c(-c4ccc(OCCO)c(OCCO)c4)oc4cc(OCCO)cc(O)c4c3=O)[C@H](O)[C@@H](O)[C@@H]2O)[C@H](O)[C@H](O)[C@H]1O ?
Reply: 2.8e-05
